tested on: crabgrass; assay: Test B pre/postemergence crabgrass; assay type: in vivo, Digitaria sanguinalis; conditions: Preemergence, Rate 125 g/ha; scale 0 to 10, 0 is no effect, 10 is complete control
ASSAY READOUT: Crabgrass plant response rating
Write the value as a bare number.

// known answers, use as guide
* CCN(CC)C(=O)Cn1c(=O)on(C(=O)N(c2ccccc2)C(C)C)c1=O [Compound 571] | 2
* CC(C)N(C(=O)n1oc(=O)n(CC(=O)C2CC2)c1=O)c1ccc(F)cc1F [Compound 490] | 9
* CC(C)N(C(=O)n1oc(=O)n(CC2CCC2)c1=O)c1ccc(F)cc1F [Compound 521] | 10
* CC(C)N(C(=O)n1oc(=O)n(CCCC(F)(F)F)c1=O)c1ccc(F)cc1F [Compound 526] | 10
* CC(C)N(C(=O)n1oc(=O)n(C(C)C(=O)c2ccccc2)c1=O)c1ccc(F)cc1F (stereo not drawn) [Compound 511] | 6

# input for lookup
Field Crabgrass plant response rating (entry CC(C)N(C(=O)n1oc(=O)n(CCC2OCCCO2)c1=O)c1ccccc1 [Compound 561] ) reads 9

====

test system: cocklebur; test: Test B pre/postemergence cocklebur; assay type: in vivo, Xanthium strumarium; settings: Postemergence, Rate 62 g/ha; scale of 0 to 10, 0 is no effect, 10 is complete control
Below: a set of entries, each annotated with reported Cocklebur plant response rating.
Write the value as a bare number.

// known answers, use as guide
* CC(C)N(C(=O)n1oc(=O)n(COCc2ccccc2)c1=O)c1ccc(F)cc1F [Compound 520] | 0
* COC(=O)CCCn1c(=O)on(C(=O)N(c2ccc(F)cc2F)C(C)C)c1=O [Compound 513] | 3
* CC(C)N(C(=O)n1oc(=O)n(CC[N+](=O)[O-])c1=O)c1ccc(F)cc1F [Compound 591] | 0
* CCN(CC)C(=O)Cn1c(=O)on(C(=O)N(c2ccccc2)C(C)C)c1=O [Compound 571] | 0
* CC(C)N(C(=O)n1oc(=O)n(CCCF)c1=O)c1ccccc1 [Compound 559] | 0

Field Cocklebur plant response rating (entry CC(C)N(C(=O)n1oc(=O)n(CCC2OCCCO2)c1=O)c1ccccc1 [Compound 561] ) reads 0

Field Cocklebur plant response rating (entry CC(C)N(C(=O)n1oc(=O)n(C[Si](C)(C)C)c1=O)c1ccccc1 [Compound 577] ) reads 0

Field Cocklebur plant response rating (entry CC(C)N(C(=O)n1oc(=O)n(CC2CCC2)c1=O)c1ccccc1 [Compound 580] ) reads 3

====

System: blackgrass
Test: Test B pre/postemergence blackgrass
Format: in vivo, Alopecurus myosuroides
Details: Preemergence, Rate 62 g/ha; scale of 0 to 10 where 0 is no effect and 10 is complete control
Procedure: […] At the same time, these crop and weed species were also treated with postemergence applications of test chemicals formulated in the same manner. […] Treated plants and controls were maintained in a greenhouse for twelve to sixteen days, after which all species were compared to controls and visually evaluated. […]
# label = rule met if Blackgrass plant response rating < 4 else rule not met

* CC(C)N(C(=O)n1oc(=O)n(CC2CCCCO2)c1=O)c1ccc(Cl)cc1 (stereo not drawn) [Compound 660] | rule met
* C=CCn1c(=O)on(C(=O)N(CC)C2CCCCC2)c1=O [Compound 307] | rule met
* CCN(CC)C(=O)Cn1c(=O)on(C(=O)N(c2ccc(F)cc2)C(C)C)c1=O [Compound 264] | rule met
* CC(C)n1c(=O)on(C(=O)N(c2ccc(Cl)cc2Cl)C2CCC2)c1=O [Compound 319] | rule met
* Cc1nc(C)c(Cn2c(=O)on(C(=O)N(c3ccc(F)cc3)C(C)C)c2=O)s1 [Compound 192] | rule not met

Then there is this compound:
IN: Is Blackgrass plant response rating strictly under 4 for the entry COCC(OC)n1c(=O)on(C(=O)N(c2ccccc2)C(C)C)c1=O (stereo not drawn) [Compound 734] ?
OUT: rule not met

====

tested on: sugar beet; assay: Test B pre/postemergence sugar beet; type: in vivo, Beta vulgaris; conditions: Preemergence, Rate 500 g/ha; scale 0 to 10 (0 no effect, 10 complete control)
Below: a set of entries, each annotated with reported Sugarbeets plant response rating.
Write the value as a bare number.

// known answers, use as guide
- CC(C)N(C(=O)n1oc(=O)n(Cc2ccccc2Cl)c1=O)c1ccc(F)cc1 [Compound 140]: 1
- CCCn1c(=O)on(C(=O)N(c2ccc(F)cc2F)C(C)C)c1=O [Compound 130]: 10

The measured Sugarbeets plant response rating that CC(C)N(C(=O)n1oc(=O)n(C(C)(C)C)c1=O)c1ccc(Cl)cc1 [Compound 118] showed for sugar beet is 0

The measured Sugarbeets plant response rating that COc1nc(OC)nc(N(C(=O)n2oc(=O)n(-c3ccccc3C)c2=O)C(C)C)n1 [Compound 181] showed for sugar beet is 0

====

Below: a set of entries, each annotated with reported Plant response rating, Redroot pigweed.
test system: pigweed; assay: Test B pre/postemergence pigweed; assay type: in vivo, Amaranthus retroflexus; details: Postemergence, Rate 62 g/ha; scale 0 to 10, 0 is no effect, 10 is complete control
Write the value as a bare number.

// known answers, use as guide
* CC(C)N(C(=O)n1oc(=O)n(C[C@H](C)Cl)c1=O)c1ccc(Cl)cc1 | 2
* C=C(Cl)Cn1c(=O)on(C(=O)N(c2ccc(F)cc2F)C(C)C)c1=O | 1
* COCCn1c(=O)on(C(=O)N(c2ccc(F)cc2)C(C)C)c1=O | 2
* CC[C@H](C)n1c(=O)on(C(=O)N(c2ccc(Cl)cc2)C(C)C)c1=O | 0
* CC(C)N(C(=O)n1oc(=O)n(CSC#N)c1=O)c1ccc(F)cc1 | 0

Field Plant response rating, Redroot pigweed (entry `C=C(Cn1c(=O)on(C(=O)N(c2ccccc2)C(C)C)c1=O)c1cccc(Cl)n1` ) reads 0

Field Plant response rating, Redroot pigweed (entry `CC(C)N(C(=O)n1oc(=O)n(C[C@H](C)Cl)c1=O)c1ccccc1` ) reads 4

Field Plant response rating, Redroot pigweed (entry `C=C(Cc1ccccc1)Cn1c(=O)on(C(=O)N(c2ccccc2)C(C)C)c1=O` ) reads 2

Field Plant response rating, Redroot pigweed (entry `CC(C)N(C(=O)n1oc(=O)n(CNC(=O)c2ccccc2)c1=O)c1ccccc1` ) reads 0

====

tested on: rape; experiment: Test B pre/postemergence rape; type: in vivo, Brassica napus; settings: Preemergence, Rate 250 g/ha; scale of 0 to 10 where 0 is no effect and 10 is complete control
ASSAY READOUT: Rape plant response rating
Write the value as a bare number.

// known answers, use as guide
- C=CCn1c(=O)on(C(=O)N(c2ccc(Cl)cc2)C(C)C2CC2)c1=O (stereo not drawn): 0
- Cc1c(-n2c(=O)on(C(=O)N(c3ccccc3)C(C)C)c2=O)ccc2ccccc12: 0
- CCOC(=O)C(C)N(C(=O)n1oc(=O)n(C2CCCCC2)c1=O)c1ccc(F)cc1 (stereo not drawn): 0
- CCCCCCn1c(=O)on(C(=O)N(c2ccc(F)cc2)C(C)C)c1=O: 0
- Cc1c(-n2c(=O)on(C(=O)N(c3ccc(Cl)cc3)C(C)C)c2=O)ccc2ccccc12: 0

The measured Rape plant response rating that `CC(C)N(C(=O)n1oc(=O)n(C2CCOCC2)c1=O)c1ccc(F)cc1` showed for rape is 10

The measured Rape plant response rating that CCOC(=O)C(C)N(C(=O)n1oc(=O)n(-c2c(C)cccc2OC)c1=O)c1ccc(F)cc1 (stereo not drawn) showed for rape is 0

The measured Rape plant response rating that `Cc1nsc(Cl)c1Cn1c(=O)on(C(=O)N(c2ccccc2)C(C)C)c1=O` showed for rape is 2

The measured Rape plant response rating that `CCN(CC)C(=O)Cn1c(=O)on(C(=O)N(c2ccc(F)cc2)C(C)C)c1=O` showed for rape is 0

====

system: cocklebur; assay: Test B pre/postemergence cocklebur; format: in vivo, Xanthium strumarium; settings: Rate 125 g/ha, Postemergence; scale 0 to 10
ASSAY READOUT: Cocklebur plant response rating
Write the value as a bare number.

// known answers, use as guide
- CC(C)N(C(=O)n1oc(=O)n(N(C)C)c1=O)c1ccccc1 [Compound 225]: 0
- CC(=O)Cn1c(=O)on(C(=O)N(c2ccc(F)cc2)C(C)C)c1=O [Compound 217]: 0
- COc1cc(C)cc(C)c1-n1c(=O)on(C(=O)N(c2ccc(F)cc2F)C(C)C)c1=O [Compound 223]: 0

# input for lookup
Field Cocklebur plant response rating (entry CSc1ccc(N(C(=O)n2oc(=O)n(-c3ccccc3C)c2=O)C(C)C)cc1 [Compound 205] ) reads 1

====

system: pigweed; experiment: Test B pre/postemergence pigweed; type: in vivo, Amaranthus retroflexus; details: Preemergence, Rate 250 g/ha; scale 0 to 10 (0 no effect, 10 complete control)
Below: a set of entries, each annotated with reported Plant response rating, Redroot pigweed.
Write the value as a bare number.

// known answers, use as guide
• CC(C)N(C(=O)n1oc(=O)n(C(C)C)c1=O)c1ccncc1 [Compound 663] = 7
• CC(C)N(C(=O)n1oc(=O)n(CNC(=O)c2ccccc2)c1=O)c1ccccc1 [Compound 620] = 0
• C#CC(C)n1c(=O)on(C(=O)N(c2ccc(F)cc2F)C(C)C)c1=O (racemic) [Compound 657] = 10
• CC(C)N(C(=O)n1oc(=O)n(CC2CCCCO2)c1=O)c1ccc(Cl)cc1 (centres unmarked) [Compound 660] = 7

# input for lookup
Field Plant response rating, Redroot pigweed (entry C=C(Cc1ccccc1)Cn1c(=O)on(C(=O)N(c2ccccc2)C(C)C)c1=O [Compound 650] ) reads 7
